Values were extracted from ChEMBL document CHEMBL1132874.

Reported values of IC50 for individual entries
Molecular target: Neuronal acetylcholine receptor; alpha4/beta2 (Rattus norvegicus, UniProt P09483+P12390)
Sequence (P09483 whole entry): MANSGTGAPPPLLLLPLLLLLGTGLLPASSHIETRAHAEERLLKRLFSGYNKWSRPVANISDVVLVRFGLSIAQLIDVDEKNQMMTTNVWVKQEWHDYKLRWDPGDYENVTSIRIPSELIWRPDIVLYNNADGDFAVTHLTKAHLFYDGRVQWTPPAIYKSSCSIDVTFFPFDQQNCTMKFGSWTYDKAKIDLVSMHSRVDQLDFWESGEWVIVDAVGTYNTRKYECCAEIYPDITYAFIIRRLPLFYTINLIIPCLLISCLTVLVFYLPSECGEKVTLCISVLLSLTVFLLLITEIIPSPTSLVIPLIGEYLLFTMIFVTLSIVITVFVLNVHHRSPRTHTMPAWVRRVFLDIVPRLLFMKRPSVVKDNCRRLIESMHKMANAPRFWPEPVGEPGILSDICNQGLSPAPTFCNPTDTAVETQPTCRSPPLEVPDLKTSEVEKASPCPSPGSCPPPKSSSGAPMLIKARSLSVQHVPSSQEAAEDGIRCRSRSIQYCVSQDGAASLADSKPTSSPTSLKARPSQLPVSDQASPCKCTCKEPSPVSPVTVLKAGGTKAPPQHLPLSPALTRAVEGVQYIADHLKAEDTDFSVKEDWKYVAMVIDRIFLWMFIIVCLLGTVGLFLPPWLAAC
Sequence (P12390 whole entry): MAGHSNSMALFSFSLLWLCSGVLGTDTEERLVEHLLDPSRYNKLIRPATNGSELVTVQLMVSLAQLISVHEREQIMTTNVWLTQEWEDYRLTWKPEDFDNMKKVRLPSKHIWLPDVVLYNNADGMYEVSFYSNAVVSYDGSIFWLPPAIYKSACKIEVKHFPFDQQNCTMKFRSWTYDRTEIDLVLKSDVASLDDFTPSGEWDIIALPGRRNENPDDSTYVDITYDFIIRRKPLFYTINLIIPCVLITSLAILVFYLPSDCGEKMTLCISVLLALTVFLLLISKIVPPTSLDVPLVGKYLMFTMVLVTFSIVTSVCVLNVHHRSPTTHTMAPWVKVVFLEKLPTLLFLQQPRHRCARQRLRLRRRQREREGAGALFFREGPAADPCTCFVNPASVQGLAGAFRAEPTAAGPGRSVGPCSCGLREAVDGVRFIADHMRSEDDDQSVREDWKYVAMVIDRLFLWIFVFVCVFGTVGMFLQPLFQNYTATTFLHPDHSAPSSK
Assay: Evaluated for binding affinity towards nicotinic acetylcholine receptor alpha4-beta2
Your answer is read as nM, so omit the unit and give the number.

SAMPLE_SMILES	MEASUREMENT_NAME	VALUE_REPORTED
c1cc(-c2cncc(O[C@@H]3CCNC3)c2)ccn1	IC50	571
N#Cc1ccc(-c2cncc(O[C@@H]3CCNC3)c2)cc1	IC50	544
C=Cc1cncc(O[C@@H]2CCNC2)c1	IC50	883
C#Cc1cc(O[C@@H]2CCNC2)cnc1Cl	IC50	46
Clc1ncc(O[C@@H]2CCNC2)cc1-c1ccncc1	IC50	65
Cc1cc(O[C@@H]2CCNC2)cnc1Cl	IC50	64
C=Cc1cc(O[C@@H]2CCNC2)cnc1Cl	IC50	140
Clc1ncc(O[C@@H]2CCNC2)cc1-c1ccccc1	IC50	75

Ask: Give Neuronal acetylcholine receptor; alpha4/beta2 (Rattus norvegicus, UniProt P09483+P12390) IC50 for Clc1cccc(-c2cc(O[C@@H]3CCNC3)cnc2Cl)c1
Result: 103

Ask: Please answer likewise for C#Cc1cncc(O[C@@H]2CCNC2)c1
Result: 62

Ask: Try this molecule next: c1ccc(-c2cncc(O[C@@H]3CCNC3)c2)cc1
Result: 1820

Ask: Can you handle Clc1cccc(-c2cncc(O[C@@H]3CCNC3)c2)c1 next?
Result: 940

----------
Biological target: Neuronal acetylcholine receptor; alpha4/beta2 (Rattus norvegicus, UniProt P09483+P12390)
Assay: Evaluated for binding affinity towards nicotinic acetylcholine receptor alpha4-beta2
MEASUREMENT_NAME: IC50

Would you please look over these solved cases?
COMPOUND	IC50
CC(C)N1CCC(Oc2cccnc2)C1 (stereo not drawn)	> 10 µM
c1cncc(OC2CNC2)c1	> 10 µM

Now let's try a different one.
Ask: Fill in: IC50 of CCN1CCC(Oc2cccnc2)C1 (stereo not drawn) is ___
Result: > 10 µM
